Each recorded value in this set is attributed to patent US6261814A.

# Target of assay: carboxylic acid reductase (aryl aldehyde oxidoreductase) (Nocardia iowensis, UniProt Q6RKB1)
# Sequence (Q6RKB1 whole entry): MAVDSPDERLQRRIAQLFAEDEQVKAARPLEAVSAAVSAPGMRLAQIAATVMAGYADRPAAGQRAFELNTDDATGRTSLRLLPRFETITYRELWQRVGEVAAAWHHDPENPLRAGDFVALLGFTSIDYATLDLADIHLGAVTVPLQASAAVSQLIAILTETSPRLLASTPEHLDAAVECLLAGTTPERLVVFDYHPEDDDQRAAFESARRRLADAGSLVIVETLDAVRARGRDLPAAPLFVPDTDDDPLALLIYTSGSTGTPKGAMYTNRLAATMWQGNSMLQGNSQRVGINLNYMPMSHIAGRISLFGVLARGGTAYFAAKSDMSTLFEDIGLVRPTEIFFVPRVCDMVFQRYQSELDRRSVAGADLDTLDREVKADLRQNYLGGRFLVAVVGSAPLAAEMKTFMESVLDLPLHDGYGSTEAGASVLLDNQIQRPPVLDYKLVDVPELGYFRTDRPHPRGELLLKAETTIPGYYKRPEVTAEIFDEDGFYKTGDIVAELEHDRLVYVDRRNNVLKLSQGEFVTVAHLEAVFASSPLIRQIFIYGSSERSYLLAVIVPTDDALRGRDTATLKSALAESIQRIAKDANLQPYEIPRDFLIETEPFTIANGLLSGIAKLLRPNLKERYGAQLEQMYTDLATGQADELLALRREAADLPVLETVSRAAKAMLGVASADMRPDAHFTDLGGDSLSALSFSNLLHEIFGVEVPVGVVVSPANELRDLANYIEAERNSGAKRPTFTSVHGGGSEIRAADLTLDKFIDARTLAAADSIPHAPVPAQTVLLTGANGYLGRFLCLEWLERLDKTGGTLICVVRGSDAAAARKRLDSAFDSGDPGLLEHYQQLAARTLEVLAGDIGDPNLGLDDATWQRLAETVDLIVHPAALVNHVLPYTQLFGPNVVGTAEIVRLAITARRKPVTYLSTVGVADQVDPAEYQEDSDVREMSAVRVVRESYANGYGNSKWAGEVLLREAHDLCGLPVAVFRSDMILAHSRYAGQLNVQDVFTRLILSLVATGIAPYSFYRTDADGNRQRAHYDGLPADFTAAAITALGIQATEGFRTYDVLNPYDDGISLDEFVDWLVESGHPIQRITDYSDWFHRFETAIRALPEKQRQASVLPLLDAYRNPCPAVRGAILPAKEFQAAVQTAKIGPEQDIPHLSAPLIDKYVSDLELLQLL
# Test name: Substrate specificity of crude carboxylic acid reductase (100,000×g supernatant)
# Format: biochemical, Nocardia sp. NRRL 5646
# Set-up: Crude enzyme preparations consisting of 100,000×g supernatants were used in this study; endogenous in cells; host or cells: Nocardia sp; NRRL 5646, crude 100,000×g supernatant
# Condition details: 5 mM substrate, 0.15 mM NADPH, 1 mM ATP, 50 mM Tris-HCl pH 7.5; percentage of the initial rate of benzoate reduction
# Method: Enzyme assay. The standard aryl-aldehyde oxidoreductase assay solution contained 0.15 mM […], 1 mM ATP, and 5 mM sodium benzoate, 10 mM MgCl2 and 0.01 to 0.3 units of enzyme in 50 mM Tris-HCl buffer in a final volume of 0.7 ml. The reference cuvette contained all components except for benzoate. Enzyme reactions were initiated by adding enzyme, and they were monitored by recording the absorption decrease at 340 nm at 25° C. with a Shimadzu 160 spectrophotometer. […]
Endpoint: Relative Activity (percentage)

compound=O=C(O)c1ccccc1Cl endpoint="Relative Activity" output_unit=percentage recorded_value=3
compound=O=C(O)c1cccc2[nH]ccc12 endpoint="Relative Activity" output_unit=percentage recorded_value=0
compound=O=C(O)c1ccc(F)cc1 endpoint="Relative Activity" output_unit=percentage recorded_value=94
compound="O=C(O)c1ccccc1O [2-hydroxyl-benzoic acid]" endpoint="Relative Activity" output_unit=percentage recorded_value=0
compound=O=C(O)c1cc2ccccc2[nH]1 endpoint="Relative Activity" output_unit=percentage recorded_value=0
compound=COc1ccc(C(=O)O)cc1 endpoint="Relative Activity" output_unit=percentage recorded_value=36
compound=O=C(O)c1ccc(Br)cc1 endpoint="Relative Activity" output_unit=percentage recorded_value=72
compound=CC(=O)c1ccccc1C(=O)O endpoint="Relative Activity" output_unit=percentage recorded_value=4
compound=O=C(O)c1ccccc1[N+](=O)[O-] endpoint="Relative Activity" output_unit=percentage recorded_value=0
compound=O=C(O)c1cccc2c1Cc1ccccc1-2 endpoint="Relative Activity" output_unit=percentage recorded_value=17
compound=O=C(O)C(C(=O)O)c1ccccc1 endpoint="Relative Activity" output_unit=percentage recorded_value=3
compound=O=C(O)c1ccc2ccccc2c1 endpoint="Relative Activity" output_unit=percentage recorded_value=95
compound=COc1cccc(C=CC(=O)O)c1 endpoint="Relative Activity" output_unit=percentage recorded_value=8
compound=O=C(O)c1ccccc1 endpoint="Relative Activity" output_unit=percentage recorded_value=100
compound=O=C(O)c1cccc(Cl)c1 endpoint="Relative Activity" output_unit=percentage recorded_value=124
compound=O=C(O)c1ccccc1C(=O)c1ccccc1 endpoint="Relative Activity" output_unit=percentage recorded_value=0
compound=O=C(O)c1c[nH]c2ccccc12 endpoint="Relative Activity" output_unit=percentage recorded_value=2
compound=O=C(O)c1ccc(Oc2ccccc2)cc1 endpoint="Relative Activity" output_unit=percentage recorded_value=11
compound=O=C(O)c1ccccc1Br endpoint="Relative Activity" output_unit=percentage recorded_value=5
compound="CC(C(=O)O)c1ccccc1 (stereo not shown)" endpoint="Relative Activity" output_unit=percentage recorded_value=16
compound=O=C(O)c1ccc(C(=O)c2ccccc2)cc1 endpoint="Relative Activity" output_unit=percentage recorded_value=6
compound=O=C(O)c1cccc(F)c1 endpoint="Relative Activity" output_unit=percentage recorded_value=78

* * *

# Target of assay: carboxylic acid reductase (aryl aldehyde oxidoreductase) (Nocardia iowensis)
Endpoint: Ki

chemical_string=Nc1ccccc1C(=O)O recorded_value="261 µM"
